Test system: Candida tropicalis
experiment summary: Antifungal activity against Candida tropicalis after 24 hrs by serial dilution method
Format: functional
Bridge positions count the residues as written; N and C are the ends. Square brackets hold non-standard residues; d marks the D form. Peptide text beside a SMILES is read from it. * marks the point of attachment. pTerphenylCO(4''-OnC5H11) = CCCCCOc1ccc(-c2ccc(-c3ccc(C(=O)*)cc3)cc2)cc1; 2Naphthoyl(6-octyloxy) = CCCCCCCCOc1ccc2cc(C(=O)*)ccc2c1; X1 = CCCOc1ccc(-c2ccc(-c3ccc(C(=O)*)cc3)cc2)cc1; Pro(4S-NH2) = N[C@@H]1CN[C@H](C(=O)O)C1; hTyr = N[C@@H](CCc1ccc(O)cc1)C(=O)O; Orn = NCCC[C@H](N)C(=O)O
As shown below, each of these molecules has a reported MIC80 value.
Reply numerically in µg/mL, unit not repeated.

Some solved cases for reference:
CCCCCCCOc1ccc2cc(C(=O)N[C@H]3CCCNC(=O)[C@@H]4C[C@H](N)CN4C(=O)[C@H]([C@H](C)O)NC(=O)[C@H](CCc4ccc(O)cc4)NC(=O)[C@@H]4C[C@H](N)CN4C(=O)[C@H]([C@@H](C)O)NC3=O)ccc2c1.Cc1ccc(S(=O)(=O)O)cc1	64
CCCCCOc1ccc(-c2ccc(-c3ccc(C(=O)N[C@H]4CCCNC(=O)[C@@H]5C[C@H](N)CN5C(=O)[C@H](CCCCN)NC(=O)[C@H](CCc5ccc(O)cc5)NC(=O)[C@@H]5CCCN5C(=O)[C@H](C(C)C)NC4=O)cc3)cc2)cc1.Cc1ccc(S(=O)(=O)O)cc1 ({pTerphenylCO(4''-OnC5H11)}-[Orn]VP[hTyr]K[Pro(4S-NH2)]; lactam 1-C)	16
CCCOc1ccc(-c2ccc(-c3ccc(C(=O)N[C@H]4CCCNC(=O)[C@@H]5C[C@H](N)CN5C(=O)[C@H](CCCCN)NC(=O)[C@H](CCc5ccc(O)cc5)NC(=O)[C@@H]5CCCN5C(=O)[C@H](C(C)C)NC4=O)cc3)cc2)cc1.Cc1ccc(S(=O)(=O)O)cc1 (X1-[Orn]VP[hTyr]K[Pro(4S-NH2)]; lactam 1-C)	16
CCCCCCCCOc1ccc2cc(C(=O)N[C@H]3CCCNC(=O)[C@@H]4C[C@H](N)CN4C(=O)[C@H](CCCN)NC(=O)[C@H](CCc4ccc(O)cc4)NC(=O)[C@@H]4CCCN4C(=O)[C@H]([C@@H](C)O)NC3=O)ccc2c1.Cc1ccc(S(=O)(=O)O)cc1 ({2Naphthoyl(6-octyloxy)}-[Orn]TP[hTyr][Orn][Pro(4S-NH2)]; lactam 1-C)	4
CCCOc1ccc(-c2ccc(-c3ccc(C(=O)N[C@H]4CCCNC(=O)[C@@H]5C[C@H](N)CN5C(=O)[C@H](CCCCN)NC(=O)[C@H](CCc5ccc(O)cc5)NC(=O)[C@@H]5CCCN5C(=O)[C@H]([C@@H](C)O)NC4=O)cc3)cc2)cc1.Cc1ccc(S(=O)(=O)O)cc1 (X1-[Orn]TP[hTyr]K[Pro(4S-NH2)]; lactam 1-C)	16

# evaluate next
So, CCCCCOc1ccc(-c2ccc(-c3ccc(C(=O)N[C@H]4CCCNC(=O)[C@@H]5C[C@H](N)CN5C(=O)[C@H](CCCN)NC(=O)[C@H](CCc5ccc(O)cc5)NC(=O)[C@@H]5CCCN5C(=O)[C@H]([C@@H](C)O)NC4=O)cc3)cc2)cc1.Cc1ccc(S(=O)(=O)O)cc1 ({pTerphenylCO(4''-OnC5H11)}-[Orn]TP[hTyr][Orn][Pro(4S-NH2)]; lactam 1-C) ? Its MIC80 was 4

###

Tested on: Pichia kudriavzevii
experiment summary: Antifungal activity against Candida krusei after 24 hrs by serial dilution method
Type: functional
Bridge positions count the residues as written; N and C are the ends. Square brackets hold non-standard residues; d marks the D form. Peptide text beside a SMILES is read from it. * marks the point of attachment. 2Naphthoyl(6-heptyloxy) = CCCCCCCOc1ccc2cc(C(=O)*)ccc2c1; 2Naphthoyl(6-octyloxy) = CCCCCCCCOc1ccc2cc(C(=O)*)ccc2c1; X1 = CCCOc1ccc(-c2ccc(-c3ccc(C(=O)*)cc3)cc2)cc1; Pro(4S-NH2) = N[C@@H]1CN[C@H](C(=O)O)C1; hTyr = N[C@@H](CCc1ccc(O)cc1)C(=O)O; Orn = NCCC[C@H](N)C(=O)O
As shown below, each of these compounds has a reported MIC80 value.
Reply numerically in µg/mL, unit not repeated.

CCCCCCCOc1ccc2cc(C(=O)N[C@H]3CCCNC(=O)[C@@H]4C[C@H](N)CN4C(=O)[C@H](CCCCN)NC(=O)[C@H](CCc4ccc(O)cc4)NC(=O)[C@@H]4CCCN4C(=O)[C@H]([C@@H](C)O)NC3=O)ccc2c1.Cc1ccc(S(=O)(=O)O)cc1 ({2Naphthoyl(6-heptyloxy)}-[Orn]TP[hTyr]K[Pro(4S-NH2)]; lactam 1-C)	0.5

So, CCCCCCCCOc1ccc2cc(C(=O)N[C@H]3CCCNC(=O)[C@@H]4C[C@H](N)CN4C(=O)[C@H](CCCCN)NC(=O)[C@H](CCc4ccc(O)cc4)NC(=O)[C@@H]4CCCN4C(=O)[C@H]([C@@H](C)O)NC3=O)ccc2c1.Cc1ccc(S(=O)(=O)O)cc1 ({2Naphthoyl(6-octyloxy)}-[Orn]TP[hTyr]K[Pro(4S-NH2)]; lactam 1-C) ? Its MIC80 was 1

So, CCCOc1ccc(-c2ccc(-c3ccc(C(=O)N[C@H]4CCCNC(=O)[C@@H]5C[C@H](N)CN5C(=O)[C@H](CCCCN)NC(=O)[C@H](CCc5ccc(O)cc5)NC(=O)[C@@H]5CCCN5C(=O)[C@H]([C@@H](C)O)NC4=O)cc3)cc2)cc1.Cc1ccc(S(=O)(=O)O)cc1 (X1-[Orn]TP[hTyr]K[Pro(4S-NH2)]; lactam 1-C) ? Its MIC80 was 1

So, `CCCCCCCCOc1ccc2cc(C(=O)N[C@H]3CCCNC(=O)[C@@H]4C[C@H](N)CN4C(=O)[C@H]([C@H](C)O)NC(=O)[C@H](CCc4ccc(O)cc4)NC(=O)[C@@H]4C[C@H](N)CN4C(=O)[C@H]([C@@H](C)O)NC3=O)ccc2c1.Cc1ccc(S(=O)(=O)O)cc1` ? Its MIC80 was 8

So, CCCCCCCCOc1ccc2cc(C(=O)N[C@H]3CCCNC(=O)[C@@H]4C[C@H](N)CN4C(=O)[C@H](CCCCN)NC(=O)[C@H](CCc4ccc(O)cc4)NC(=O)[C@@H]4CCCN4C(=O)[C@H](C(C)C)NC3=O)ccc2c1.Cc1ccc(S(=O)(=O)O)cc1 ({2Naphthoyl(6-octyloxy)}-[Orn]VP[hTyr]K[Pro(4S-NH2)]; lactam 1-C) ? Its MIC80 was 2

So, `CCCCCCCOc1ccc2cc(C(=O)N[C@H]3CCCNC(=O)[C@@H]4C[C@H](N)CN4C(=O)[C@H]([C@H](C)O)NC(=O)[C@H](CCc4ccc(O)cc4)NC(=O)[C@@H]4C[C@H](N)CN4C(=O)[C@H](CO)NC3=O)ccc2c1.Cc1ccc(S(=O)(=O)O)cc1` ? Its MIC80 was 8

###

Tested on: Candida tropicalis
experiment summary: Antifungal activity against Candida tropicalis after 24 hrs by serial dilution method
Assay type: functional
Bridge positions count the residues as written; N and C are the ends. Square brackets hold non-standard residues; d marks the D form. Peptide text beside a SMILES is read from it. * marks the point of attachment. pTerphenylCO(4''-OnC5H11) = CCCCCOc1ccc(-c2ccc(-c3ccc(C(=O)*)cc3)cc2)cc1; 2Naphthoyl(6-heptyloxy) = CCCCCCCOc1ccc2cc(C(=O)*)ccc2c1; X2 = CCCCCCCOc1ccc(-c2ccc(-c3ccc(C(=O)*)cc3)cc2)cc1; Pro(4S-NH2) = N[C@@H]1CN[C@H](C(=O)O)C1; hTyr = N[C@@H](CCc1ccc(O)cc1)C(=O)O; Orn = NCCC[C@H](N)C(=O)O
As shown below, each of these molecules has a reported MIC80 value.

CCCCCCCOc1ccc(-c2ccc(-c3ccc(C(=O)N[C@H]4CCCNC(=O)[C@@H]5C[C@H](N)CN5C(=O)[C@H](CCCN)NC(=O)[C@H](CCc5ccc(O)cc5)NC(=O)[C@@H]5CCCN5C(=O)[C@H](C(C)C)NC4=O)cc3)cc2)cc1.Cc1ccc(S(=O)(=O)O)cc1 (X2-[Orn]VP[hTyr][Orn][Pro(4S-NH2)]; lactam 1-C)	16 µg/mL

// returns MIC80 for `CCCCCCCCOc1ccc2cc(C(=O)N[C@H]3CCCNC(=O)[C@@H]4C[C@H](N)CN4C(=O)[C@H]([C@H](C)O)NC(=O)[C@H](CCc4ccc(O)cc4)NC(=O)[C@@H]4C[C@H](N)CN4C(=O)[C@H]([C@@H](C)O)NC3=O)ccc2c1.Cc1ccc(S(=O)(=O)O)cc1` with Candida tropicalis; value = 32 µg/mL

// returns MIC80 for CCCCCOc1ccc(-c2ccc(-c3ccc(C(=O)N[C@H]4CCCNC(=O)[C@@H]5C[C@H](N)CN5C(=O)[C@H](CCCCN)NC(=O)[C@H](CCc5ccc(O)cc5)NC(=O)[C@@H]5CCCN5C(=O)[C@H]([C@@H](C)O)NC4=O)cc3)cc2)cc1.Cc1ccc(S(=O)(=O)O)cc1 ({pTerphenylCO(4''-OnC5H11)}-[Orn]TP[hTyr]K[Pro(4S-NH2)]; lactam 1-C) with Candida tropicalis; value = 8 µg/mL

// returns MIC80 for CCCCCCCOc1ccc(-c2ccc(-c3ccc(C(=O)N[C@H]4CCCNC(=O)[C@@H]5C[C@H](N)CN5C(=O)[C@H](CCCN)NC(=O)[C@H](CCc5ccc(O)cc5)NC(=O)[C@@H]5CCCN5C(=O)[C@H]([C@@H](C)O)NC4=O)cc3)cc2)cc1.Cc1ccc(S(=O)(=O)O)cc1 (X2-[Orn]TP[hTyr][Orn][Pro(4S-NH2)]; lactam 1-C) with Candida tropicalis; value = 8 µg/mL

// returns MIC80 for CCCCCCCOc1ccc2cc(C(=O)N[C@H]3CCCNC(=O)[C@@H]4C[C@H](N)CN4C(=O)[C@H](CCCN)NC(=O)[C@H](CCc4ccc(O)cc4)NC(=O)[C@@H]4CCCN4C(=O)[C@H]([C@@H](C)O)NC3=O)ccc2c1.Cc1ccc(S(=O)(=O)O)cc1 ({2Naphthoyl(6-heptyloxy)}-[Orn]TP[hTyr][Orn][Pro(4S-NH2)]; lactam 1-C) with Candida tropicalis; value = 32 µg/mL

Every entry's value here was drawn from ChEMBL document CHEMBL1949505.
